- assayTarget: T1, recombinant PD-1 extracellular domain Fc fusion protein (PD-1 Fc) (human, biotin label (sites not given) in the ELISA binding assay; unlabelled when coated in the ligand blocking assay)
- T1 construct: also called human PD-1Fc; human PD-1
- T1 sequence (chain, as listed by the source limits assumed): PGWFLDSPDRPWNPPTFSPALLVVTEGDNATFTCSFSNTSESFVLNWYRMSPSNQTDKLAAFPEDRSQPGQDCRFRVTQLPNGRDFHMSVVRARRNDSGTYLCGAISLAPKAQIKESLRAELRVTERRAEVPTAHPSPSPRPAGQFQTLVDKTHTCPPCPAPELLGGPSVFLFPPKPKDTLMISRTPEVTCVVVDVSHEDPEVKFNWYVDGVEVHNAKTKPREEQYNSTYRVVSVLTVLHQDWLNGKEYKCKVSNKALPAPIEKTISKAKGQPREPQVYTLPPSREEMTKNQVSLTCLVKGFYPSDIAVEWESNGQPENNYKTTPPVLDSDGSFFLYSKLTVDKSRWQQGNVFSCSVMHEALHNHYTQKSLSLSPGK
- experimentSummary: ELISA as in Example 2, biotinylated PD-1 Fc captured on avidin
- Description: The PD-1 antibody blocks signaling pathway of PD-1 and its ligand by binding to PD-1 extracellular domain. In vitro ELISA assay is used to detect the binding property of the PD-1 antibody. […] Neutralization avidin (binding to biotin) was diluted to 1 μl/ml with PBS buffer, pipetted into a 96-well plate with at 100 μl/well and standed for 16 h-20 h at 4° C. […] The absorbance value at 450 nm was read on NOVOStar microplate reader; the ELISA binding EC₅₀ value was calculated. […]
Known EC50 of a selection of binders
Express the result in nM but write the number alone.

1) humanized antibody H005-2 (antibody, human IgG4 S228P, kappa, F234A L235A, name in Kabat numbering, V domains shown, Back-mutated variant of H005-1, IgG4 constant region) VH: EVQLVESGGGLVQPGGSLRLSCAASGFTFSSYMMSWVRQAPGKRLEWVATISGGGANTYYPDSVKGRFTISRDNAKNSLYLQMNSLRAEDTAVYYCARQLYYFDYWGQGTTVTVSS VL: DIQMTQSPSSLSASVGDRVTITCLASQTIGTWLTWYQQKPGKAPKLLIYTATSLADGVPSRFSGSGSGTDFTLTISSLQPEDFATYYCQQVYSIPWTFGGGTKVEIKR: 0.14

For this binder ( humanized antibody H005-4 (antibody, human IgG4 S228P, kappa, F234A L235A, name in Kabat numbering, V domains shown, Back-mutated variant of H005-1, IgG4 constant region) VH: EVQLVESGGGLVQPGGSLRLSCAASGFTFSSYMMSWVRQAPGKRLEWVATISGGGANTYYPDSVKGRFTISRDNAKNSLYLQMNSLRAEDTAVYYCARQLYYFDYWGQGTTVTVSS VL: DIQMTQSPSSLSASVGDRVTITCLASQTIGTWLTWYQQKPGKSPKLLIYTATSLADGVPSRFSGSGSGTDFTLTISSLQPEDFATYYCQQVYSIPWTFGGGTKVEIKR ), measured EC50 is 0.14

For this binder ( humanized antibody H005-1 (antibody, human IgG4 S228P, kappa, F234A L235A, V domains shown, CDR graft of mAb005 on IgHV3-7/JH6 and IGKV1-39/JK4, IgG4 constant region; expressed in HEK293 cells; also called PD-1 antibody H005-1) VH: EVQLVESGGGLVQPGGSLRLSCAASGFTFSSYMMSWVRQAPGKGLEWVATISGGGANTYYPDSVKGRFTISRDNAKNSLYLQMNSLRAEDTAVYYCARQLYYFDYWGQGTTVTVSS VL: DIQMTQSPSSLSASVGDRVTITCLASQTIGTWLTWYQQKPGKAPKLLIYTATSLADGVPSRFSGSGSGTDFTLTISSLQPEDFATYYCQQVYSIPWTFGGGTKVEIKR ), measured EC50 is 0.11
